What relative viability was measured for each of the following?
test system: EPLC-272H; test: relative viability (nuclei count vs DMSO), 5 days (fraction); higher = more cells survive; conditions: first compound 0.01 µM
Format: numeric value only, no unit, no commentary.

Exam item: Param item = Cc1cn(-c2cc(NC(=O)c3ccc(C)c(Nc4nccc(-c5cccnc5)n4)c3)cc(C(F)(F)F)c2)cn1 [Nilotinib] + Nc1ncn([C@H]2C[C@H](O)[C@@H](CO)O2)c(=O)n1 [Decitabine] (partner 2 µM) ; retrieve measured relative viability.
Marked response: 0.436

Exam item: Param item = Cc1cn(-c2cc(NC(=O)c3ccc(C)c(Nc4nccc(-c5cccnc5)n4)c3)cc(C(F)(F)F)c2)cn1 [Nilotinib] + CC1(C)CCC(c2ccc(Cl)cc2)=C(CN2CCN(c3ccc(C(=O)NS(=O)(=O)c4ccc(N[C@H](CCN5CCOCC5)CSc5ccccc5)c(S(=O)(=O)C(F)(F)F)c4)cc3)CC2)C1 [Navitoclax] (partner 0.5 µM) ; retrieve measured relative viability.
Marked response: 1.5
